Reference source for all entries: patent US20050282755A1

tested on: Propionibacterium acnes ATCC 6919; experiment: MIC, agar dilution method NCCLS M11-A6, Brucella agar, anaerobic (Table 9, superscript c); assay type: cell-based; details: ATCC 6919
Non-standard residues stand in square brackets, D forms with d. Residues, ends and D or L forms follow the SMILES beside them. *: point of attachment. 1Nal = N[C@@H](Cc1cccc2ccccc12)C(=O)O; Lauroyl = CCCCCCCCCCCC(=O)*; Decanoyl = CCCCCCCCCC(=O)*

Compound	MIC P. acnes
CCCCCCCCCCCC(=O)N[C@@H](CCCNC(=N)N)C(=O)N[C@@H](CO)C(=O)N[C@@H](CCCNC(=N)N)C(=O)N[C@@H](Cc1c[nH]c2ccccc12)C(=O)N[C@@H](CCCNC(=N)N)C(=O)N[C@@H](CC(=O)O)C(=O)N[C@@H](Cc1cccc2ccccc12)C(=O)N[C@@H](C)C(=O)N[C@@H](CCCNC(=N)N)C(=O)N[C@@H](CC(N)=O)C(=O)N[C@@H](Cc1ccccc1)C(=O)N[C@@H](CCSC)C(=O)N[C@@H](CCCNC(=N)N)C(N)=O [Peptide 150] (Lauroyl-RSRWRD[1Nal]ARNFMR-NH2)	>64c ug/mL
CCCCCCCCCC(=O)NCCCC[C@H](NC(=O)[C@H](CCCNC(=N)N)NC(=O)[C@H](CCSC)NC(=O)[C@H](Cc1ccccc1)NC(=O)[C@H](CC(N)=O)NC(=O)[C@H](CCCNC(=N)N)NC(=O)[C@H](C)NC(=O)[C@@H](NC(=O)[C@H](CC(=O)O)NC(=O)[C@H](CCCNC(=N)N)NC(=O)[C@H](Cc1c[nH]c2ccccc12)NC(=O)[C@H](CCCNC(=N)N)NC(=O)[C@H](CO)NC(=O)[C@@H](N)CCCNC(=N)N)C(C)C)C(N)=O [Peptide 185, H2N-RSRWRDVARNFMRK(Decanyl)-NH2] (H-RSRWRDVARNFMRK(Decanoyl)-NH2)	32c ug/mL
CCCCCCCCCCCC(=O)N[C@@H](CCCNC(=N)N)C(=O)N[C@@H](CO)C(=O)N[C@@H](CCCNC(=N)N)C(=O)N[C@@H](Cc1c[nH]c2ccccc12)C(=O)N[C@@H](CCCNC(=N)N)C(=O)N[C@@H](CC(=O)O)C(=O)N[C@H](C(=O)N[C@@H](C)C(=O)N[C@@H](CCCNC(=N)N)C(=O)N[C@@H](CC(N)=O)C(=O)N[C@@H](Cc1ccccc1)C(N)=O)C(C)C [Peptide 99, Lauryl-RSRWRDVARNF-NH2] (Lauroyl-RSRWRDVARNF-NH2)	>64c ug/mL
CCCCCCCCCCCC(=O)N[C@H](CCCNC(=N)N)C(=O)N[C@H](CO)C(=O)N[C@H](CCCNC(=N)N)C(=O)N[C@H](Cc1c[nH]c2ccccc12)C(=O)N[C@H](CCCNC(=N)N)C(=O)N[C@H](CC(=O)O)C(=O)N[C@H](CO)C(=O)N[C@H](C)C(=O)N[C@H](CCCNC(=N)N)C(=O)N[C@H](CC(N)=O)C(=O)N[C@H](Cc1ccccc1)C(=O)N[C@H](CCSC)C(=O)N[C@H](CCCNC(=N)N)C(N)=O [Peptide 233, Lauryl-rsrwrdsarnfmr-NH2] (Lauroyl-[dR][dS][dR][dW][dR][dD][dS][dA][dR][dN][dF][dM][dR]-NH2)	16c ug/mL

====

tested on: Propionibacterium acnes ATCC 6919; assay: MIC, agar dilution method NCCLS M11-A6, Brucella agar, anaerobic (Table 9, superscript c); format: cell-based; conditions: ATCC 6919
Non-standard residues stand in square brackets, D forms with d. Residues, ends and D or L forms follow the SMILES beside them. *: point of attachment. Lauroyl = CCCCCCCCCCCC(=O)*

Compound	Value comparator	MIC P. acnes (c ug/mL)
CCCCCCCCCCCC(=O)N[C@H](CCCNC(=N)N)C(=O)N[C@H](CC(=O)O)C(=O)N[C@@H](C(=O)N[C@H](C)C(=O)N[C@H](CCCNC(=N)N)C(=O)N[C@H](CC(N)=O)C(=O)N[C@H](Cc1ccccc1)C(=O)N[C@H](CCSC)C(=O)N[C@H](CCCNC(=N)N)C(N)=O)C(C)C [Peptide 128, Lauryl-rdvarnfmr-NH2] (Lauroyl-[dR][dD][dV][dA][dR][dN][dF][dM][dR]-NH2)	=	16
CCCCCCCCCCCC(=O)N[C@@H](CCCNC(=N)N)C(=O)N[C@@H](Cc1c[nH]c2ccccc12)C(=O)N[C@@H](CCCNC(=N)N)C(=O)N[C@@H](CC(=O)O)C(=O)N[C@@H](CC(C)C)C(=O)N[C@@H](C)C(=O)N[C@@H](CCCNC(=N)N)C(N)=O [Peptide 241, Lauryl-RWRDLAR-NH2] (Lauroyl-RWRDLAR-NH2)	=	64
CCCCCCCCCCCC(=O)N[C@H](CCCNC(=N)N)C(=O)N[C@H](C)C(=O)N[C@H](CCCNC(=N)N)C(=O)N[C@H](Cc1c[nH]c2ccccc12)C(=O)N[C@H](CCCNC(=N)N)C(=O)N[C@H](CC(=O)O)C(=O)N[C@@H](C(=O)N[C@H](C)C(=O)N[C@H](CCCNC(=N)N)C(=O)N[C@H](CC(N)=O)C(=O)N[C@H](Cc1ccccc1)C(=O)N[C@H](CC(C)C)C(=O)N[C@H](CCCNC(=N)N)C(N)=O)C(C)C [Peptide 224, Lauryl-rarwrdvarnflr-NH2] (Lauroyl-[dR][dA][dR][dW][dR][dD][dV][dA][dR][dN][dF][dL][dR]-NH2)	=	32
CCCCCCCCCCCC(=O)N[C@@H](CCCNC(=N)N)C(=O)N[C@@H](Cc1c[nH]c2ccccc12)C(=O)N[C@@H](CCCNC(=N)N)C(=O)N[C@@H](C)C(=O)N[C@@H](CC(C)C)C(=O)N[C@@H](C)C(=O)N[C@@H](CCCNC(=N)N)C(N)=O [Peptide 242, Lauryl-RWRALAR-NH2] (Lauroyl-RWRALAR-NH2)	=	64
CCCCCCCCCCCC(=O)N[C@H](CCCNC(=N)N)C(=O)N[C@H](CO)C(=O)N[C@H](CCCNC(=N)N)C(=O)N[C@H](Cc1c[nH]c2ccccc12)C(=O)N[C@H](CCCNC(=N)N)C(=O)N[C@H](C)C(=O)N[C@@H](C(=O)N[C@H](C)C(=O)N[C@H](CCCNC(=N)N)C(=O)N[C@H](CC(N)=O)C(=O)N[C@H](Cc1ccccc1)C(=O)N[C@H](CC(C)C)C(=O)N[C@H](CCCNC(=N)N)C(N)=O)C(C)C [Peptide 225, Lauryl-rsrwravarnflr-NH2] (Lauroyl-[dR][dS][dR][dW][dR][dA][dV][dA][dR][dN][dF][dL][dR]-NH2)	=	8
CCCCCCCCCCCC(=O)N[C@@H](CCCNC(=N)N)C(=O)N[C@@H](CO)C(=O)N[C@@H](CCCNC(=N)N)C(=O)N[C@@H](Cc1c[nH]c2ccccc12)C(=O)N[C@@H](CCCNC(=N)N)C(=O)N[C@@H](CC(=O)O)C(=O)N[C@H](C(=O)N[C@@H](C)C(=O)N[C@@H](CCCNC(=N)N)C(=O)N[C@@H](CC(N)=O)C(=O)N[C@@H](Cc1c[nH]c2ccccc12)C(=O)N[C@@H](CCSC)C(=O)N[C@@H](CCCNC(=N)N)C(N)=O)C(C)C [Peptide 139, Lauryl-RSRWRDVARNWMR-NH2] (Lauroyl-RSRWRDVARNWMR-NH2)	=	16
CCCCCCCCCCCC(=O)N[C@@H](CCCNC(=N)N)C(=O)N[C@@H](Cc1c[nH]c2ccccc12)C(=O)N[C@@H](CCCNC(=N)N)C(=O)N[C@@H](CC(=O)O)C(=O)N[C@H](C(=O)N[C@@H](C)C(=O)N[C@@H](CCCNC(=N)N)C(=O)N[C@@H](CC(N)=O)C(=O)N[C@@H](Cc1ccccc1)C(=O)N[C@@H](CC(C)C)C(=O)N[C@@H](CCCNC(=N)N)C(N)=O)C(C)C [Peptide 163, Lauryl-RWRDVARNFLR-NH2] (Lauroyl-RWRDVARNFLR-NH2)	>	64

====

Each entry below lists one item and its recorded MIC P. aeruginosa value.
tested on: Pseudomonas aeruginosa ATCC 27853; test: MIC, NCCLS M7-A6 broth microdilution (Table 9, no superscript); format: cell-based; conditions: ATCC 27853
Non-standard residues stand in square brackets, D forms with d. Residues, ends and D or L forms follow the SMILES beside them. *: point of attachment. Lauroyl = CCCCCCCCCCCC(=O)*

Compound	MIC P. aeruginosa / µg/mL
CCCCCCCCCCCC(=O)N[C@@H](CCCNC(=N)N)C(=O)N[C@@H](CO)C(=O)N[C@@H](CCCNC(=N)N)C(=O)N[C@@H](Cc1c[nH]c2ccccc12)C(=O)N[C@@H](CCCNC(=N)N)C(=O)N[C@@H](CC(=O)O)C(=O)N[C@@H](Cc1c[nH]c2ccccc12)C(=O)N[C@@H](C)C(=O)N[C@@H](CCCNC(=N)N)C(=O)N[C@@H](CC(N)=O)C(=O)N[C@@H](Cc1ccccc1)C(=O)N[C@@H](CCSC)C(=O)N[C@@H](CCCNC(=N)N)C(N)=O [Peptide 140, Lauryl-RSRWRDWARNFMR-NH2] (Lauroyl-RSRWRDWARNFMR-NH2)	8
CCCCCCCCCCCC(=O)N[C@H](CCCNC(=N)N)C(=O)N[C@H](CO)C(=O)N[C@H](CCCNC(=N)N)C(=O)N[C@H](Cc1c[nH]c2ccccc12)C(=O)N[C@H](CCCNC(=N)N)C(=O)N[C@H](CC(=O)O)C(=O)N[C@@H](C(=O)N[C@H](C)C(=O)N[C@H](CCCNC(=N)N)C(=O)N[C@H](CC(N)=O)C(=O)N[C@H](Cc1ccccc1)C(=O)N[C@H](CC(C)C)C(N)=O)C(C)C [Peptide 211, Lauryl-rsrwrdvarnfl-NH2] (Lauroyl-[dR][dS][dR][dW][dR][dD][dV][dA][dR][dN][dF][dL]-NH2)	64
